All figures here come from patent US9884839B2.

target: mouse 17β-HSD1 (Mus musculus, UniProt P51656); construct: made in house; host or cells: HEK293 cells, transient transfection; 1,000 g supernatant of the cell lysate; experiment: Inhibition of mouse 17β-HSD1 (recombinant, HEK293 lysate); format: biochemical; settings: read-out: Inhibition @ 1 μM m17β-HSD1
Sequence (P51656 whole entry): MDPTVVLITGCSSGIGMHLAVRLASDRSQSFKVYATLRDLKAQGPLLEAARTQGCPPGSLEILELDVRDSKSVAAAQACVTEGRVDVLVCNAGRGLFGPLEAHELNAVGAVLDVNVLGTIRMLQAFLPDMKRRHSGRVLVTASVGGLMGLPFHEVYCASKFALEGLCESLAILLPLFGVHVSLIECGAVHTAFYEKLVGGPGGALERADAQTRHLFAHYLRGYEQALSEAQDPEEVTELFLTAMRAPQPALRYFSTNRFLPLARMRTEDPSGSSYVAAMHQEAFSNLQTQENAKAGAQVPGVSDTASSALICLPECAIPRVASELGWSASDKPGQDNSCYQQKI
Recorded Metric: inhibition at 1 µM (%)
Please reply with the bare figure in % and do not write the unit itself.

Recorded inhibition at 1 µM for O=C(c1ccc(-c2ccc(O)c(F)c2)s1)c1cc(F)c(F)c(O)c1F [Compound 42] , please?
46

Now consider O=C(c1ccc(Br)s1)c1cc(F)c(F)c(O)c1F [Compound 1g] and answer again.
11

Moving on to COc1c(Cl)cc(-c2ccc(C(=O)c3c(F)ccc(O)c3F)s2)cc1Cl [Compound 15]
43

Now consider COc1ccc(-c2ccc(C(=O)c3c(F)ccc(O)c3F)s2)cc1Cl [Compound 12] and answer again.
40

Record: COc1c(C)cc(-c2ccc(C(=O)c3c(F)ccc(O)c3F)s2)cc1C [Compound 16]
59

---

Give measured log10 of IC50 for each item. Keep answers brief.
biological target: human 17β-HSD1 (Homo sapiens); construct: For the partial purification of 17β-HSD1, the cytosolic fraction was precipitated with ammonium sulfate; from tissue; host or cells: human placenta, cytosolic fraction, ammonium sulfate precipitate; test: Inhibition of human 17β-HSD1 (conversion of [3H]-E1 to E2, HPLC radioflow detection); assay type: biochemical; conditions: human placental cytosolic enzyme, E1 500 nM, NADH; Tables 1, 4-11; read-out: IC50 [nM] h17β-HSD1
Sequence (P14061 whole entry): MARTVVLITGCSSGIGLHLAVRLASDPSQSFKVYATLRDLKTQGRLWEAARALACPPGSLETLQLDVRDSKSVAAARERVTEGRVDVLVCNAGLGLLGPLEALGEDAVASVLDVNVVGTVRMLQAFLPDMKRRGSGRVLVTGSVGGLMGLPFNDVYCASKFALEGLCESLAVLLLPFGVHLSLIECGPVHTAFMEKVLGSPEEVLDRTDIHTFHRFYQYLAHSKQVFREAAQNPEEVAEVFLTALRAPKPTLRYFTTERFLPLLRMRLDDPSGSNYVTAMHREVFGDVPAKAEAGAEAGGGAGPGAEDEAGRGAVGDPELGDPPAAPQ
# values: log10(IC50), units nM

Query the reported log10 of IC50 for human 17β-HSD1 (Homo sapiens); item: `Cc1cc(-c2ccc(C(=O)c3cc(F)cc(O)c3C)s2)cc(C)c1O`
1.10

Next entry: `O=C(c1ccc(-c2ccc(F)cc2F)s1)c1c(F)ccc(O)c1F`
0.54

Field entry: `COc1ccc(-c2sc(C(=O)c3c(F)ccc(O)c3F)cc2C)cc1Cl`
0.74

Also `COc1c(C)cc(-c2ccc(C(=O)c3c(F)ccc(O)c3F)s2)cc1C` ?
-0.05

How about `O=C(c1ccc(-c2ccc3cc[nH]c3c2)s1)c1cc(F)c(F)c(O)c1F` ?
1.46

---

target: human 17β-HSD1 (Homo sapiens); construct: For the partial purification of 17β-HSD1, the cytosolic fraction was precipitated with ammonium sulfate; from tissue; host or cells: human placenta, cytosolic fraction, ammonium sulfate precipitate; assay: Inhibition of human 17β-HSD1 (conversion of [3H]-E1 to E2, HPLC radioflow detection); format: biochemical; details: read-out: % inhibition h17β-HSD1 @ 10 nM
Recorded Metric: inhibition at 0.01 µM (%)
Kindly provide the numeric value in % only, without the unit symbol.

Field request: inhibition at 0.01 µM | item: `CC(=O)Nc1ccc(-c2ccc(C(=O)c3cc(F)c(F)c(O)c3F)s2)cc1`
0

Would you kindly repeat that for `COc1ccc(-c2ccc(C(=O)c3cc(F)c(F)c(O)c3F)s2)cc1N` ?
13

Same for `NS(=O)(=O)Oc1ccc(-c2ccc(C(=O)c3cc(F)c(F)c(O)c3F)s2)cc1`
20

Another: `O=C(c1ccc(-c2ccccc2)s1)c1cc(F)c(F)c(O)c1F`
71

`COc1ccc(-c2ccc(C(=O)c3cc(F)c(F)c(O)c3F)s2)cc1` ?
47

Also, `Cc1c(N)cccc1-c1ccc(C(=O)c2cc(F)c(F)c(O)c2F)s1` please.
1.1

Also `NS(=O)(=O)c1ccc(-c2ccc(C(=O)c3c(F)ccc(O)c3F)s2)cc1` , if possible.
18

What would you report for `O=C(c1ccc(-c2ccc3[nH]ccc3c2)s1)c1cc(F)c(F)c(O)c1F` ?
48

Further, for `Nc1cc(-c2ccc(C(=O)c3cc(F)c(F)c(O)c3F)s2)ccc1O` ?
48

Now try `COc1c(Cl)cc(-c2ccc(C(=O)c3c(F)ccc(O)c3Cl)s2)cc1Cl` .
41

Could you do the same for `COc1ccccc1-c1ccc(C(=O)c2cc(F)c(F)c(O)c2F)s1` , please?
81

Another compound: `Cc1ccc(-c2ccc(C(=O)c3cc(F)c(F)c(O)c3F)s2)cc1N`
14

Ok, now `CS(=O)(=O)Nc1cccc(-c2ccc(C(=O)c3cc(F)c(F)c(O)c3F)s2)c1`
53

Thanks! And `O=C(c1ccc(-c2cccc(O)c2)s1)c1cc(F)c(F)c(O)c1F` ?
72

Lookup `Cc1cc(-c2ccc(C(=O)c3cccc(O)c3Cl)s2)cc(C)c1O`
31

Same question, `O=C(c1ccc(-c2ccc3[nH]cnc3c2)s1)c1cc(F)c(F)c(O)c1F` this time
30

Now the compound `O=C(c1ccc(-c2ccc(O)cc2)s1)c1cc(F)c(F)c(O)c1F`
66

Please answer likewise for `COc1c(Cl)cc(-c2ccc(C(=O)c3c(Cl)ccc(O)c3F)s2)cc1Cl`
100
